Origin of measurements: paper PMC7531004

# System: Streptococcus pyogenes SSI-9
# experimental_details: Antibacterial activity assay of bead-derived peptides (three concentrations)
# Format: cell-based
# Design: key: +++: inhibition by the 640-fold diluted peptide solution; ++: inhibition by the 160-fold diluted solution; +: inhibition by the 40-fold diluted solution; -: no inhibition
# cond: S. pyogenes, bead-derived peptide solution, three concentrations
Where a SMILES comes first, the peptide text is derived from it. [ ]: non-standard residue; d: D form. The star is where a group is joined. NHCH2CH2OH = OCCN*; For = O=C*

molecule	antibacterial activity
CC(C)C[C@@H](NC(=O)[C@H](Cc1c[nH]c2ccccc12)NC(=O)[C@H](NC(=O)[C@H](Cc1c[nH]c2ccccc12)NC(=O)[C@@H](CC(C)C)NC(=O)[C@H](Cc1c[nH]c2ccccc12)NC(=O)[C@H](NC(=O)[C@@H](NC(=O)[C@H](NC(=O)[C@H](C)NC(=O)[C@H](NC(=O)[C@H](C)NC(=O)CNC(=O)[C@@H](NC=O)C(C)C)C(C)C)C(C)C)C(C)C)[C@H](C)O)C(C)C)C(=O)N[C@@H](Cc1c[nH]c2ccccc12)C(=O)NCCO [compound 2829] (For-VGA[dV]A[dV]V[dT]W[dL]W[dV]W[dL]W-NHCH2CH2OH)	-
